This collection of values is drawn from ChEMBL document CHEMBL3885861.

# Species: Rattus norvegicus
# test protocol: Open TG-GATES - Regimen: Single
# Assay type: toxicity, organism-based, Sprague-Dawley
# Set-up: regimen Single, gender Male, age 6 weeks
# assay context: in vivo, po, 0 mg/kg, 6 h, tissue Plasma, route gavage, dose level Control
Provide the reported RALB of each item.
Numbers only, in g/dL.

Batch: RALB for all items listed.
1. CCCc1cc(=O)[nH]c(=S)[nH]1
2. CN1C(=O)CCS(=O)(=O)C1c1ccc(Cl)cc1 (stereo not given)

1: 3.6; 2: 2.7

Batch: RALB for all items listed.
1. Cc1nnc2n1-c1ccc(Cl)cc1C(c1ccccc1Cl)=NC2
2. CC(C)NNC(=O)c1ccncc1

1: 2.5; 2: 3

Using the record for CN(C)CCC(c1ccc(Cl)cc1)c1ccccn1 (stereo not given) , report its RALB.
2.5

----------
Provide the reported Na of each item.
# Organism: Rattus norvegicus
# test protocol: Open TG-GATES - Regimen: Daily Repeat
# Type: toxicity, organism-based, Sprague-Dawley
# Set-up: regimen Daily Repeat, gender Male, age 6 weeks
# assay context: in vivo, po, 100 mg/kg, 72 h, tissue Plasma, route gavage, dose level Low, time 3 day
Answers are plain numbers, in meq/L.

Batch: Na for all items listed.
1. Cc1nnc2n1-c1ccc(Cl)cc1C(c1ccccc1Cl)=NC2 [TRIAZOLAM]
2. CN/C(=N/CCSCc1nc[nH]c1C)NC#N [CIMETIDINE]
3. COC(=O)C1=C(C)NC(C)=C(C(=O)OC)C1c1ccccc1[N+](=O)[O-] [NIFEDIPINE]
4. CNC(=C[N+](=O)[O-])NCCSCc1ccc(CN(C)C)o1 [RANITIDINE]
5. O=C(OC[C@H]1O[C@@H](OC(=O)c2cc(O)c(O)c(OC(=O)c3cc(O)c(O)c(O)c3)c2)[C@H](OC(=O)c2cc(O)c(O)c(OC(=O)c3cc(O)c(O)c(O)c3)c2)[C@@H](OC(=O)c2cc(O)c(O)c(OC(=O)c3cc(O)c(O)c(O)c3)c2)[C@@H]1OC(=O)c1cc(O)c(O)c(OC(=O)c2cc(O)c(O)c(O)c2)c1)c1cc(O)c(O)c(OC(=O)c2cc(O)c(O)c(O)c2)c1 [TANNIC ACID]
6. CCOc1ccc(NC(C)=O)cc1 [PHENACETIN]

1: 141; 2: 140.8; 3: 143.2; 4: 141.4; 5: 139.8; 6: 143.4

----------
# Species on record: Rattus norvegicus
# test protocol: Open TG-GATES - Regimen: Daily Repeat
# Assay type: toxicity, organism-based, Sprague-Dawley
# Parameters: regimen Daily Repeat, gender Male, age 6 weeks
# assay context: in vivo, po, 100 mg/kg, 72 h, tissue Blood, route gavage, dose level Low, time 3 day
Provide the reported Hb of each item.
Numbers only, in g/dL.

CNC(=C[N+](=O)[O-])NCCSCc1ccc(CN(C)C)o1
14

Batch: Hb for all items listed.
1. COC(=O)C1=C(C)NC(C)=C(C(=O)OC)C1c1ccccc1[N+](=O)[O-]
2. CN/C(=N/CCSCc1nc[nH]c1C)NC#N

[13.6, 12.8]

Batch: Hb for all items listed.
1. O=C(OC[C@H]1O[C@@H](OC(=O)c2cc(O)c(O)c(OC(=O)c3cc(O)c(O)c(O)c3)c2)[C@H](OC(=O)c2cc(O)c(O)c(OC(=O)c3cc(O)c(O)c(O)c3)c2)[C@@H](OC(=O)c2cc(O)c(O)c(OC(=O)c3cc(O)c(O)c(O)c3)c2)[C@@H]1OC(=O)c1cc(O)c(O)c(OC(=O)c2cc(O)c(O)c(O)c2)c1)c1cc(O)c(O)c(OC(=O)c2cc(O)c(O)c(O)c2)c1
2. Cc1nnc2n1-c1ccc(Cl)cc1C(c1ccccc1Cl)=NC2

1: 13.2; 2: 13.8
